Measured abundance fitness, listed per entry.
B1: F-BAR and double SH3 domains protein 1, residues 467 to 528; numbered along this chain, Q86WN1 (parent)
chain: RALPCPAHVVFRYQAGREDELTITEGEWLEVIEEGDADEWVKARNQHGEVGFVPERYLNFPD

# Variants of: B1
# PROCEDURE DETAILS: abundance fitness (aPCA) (normalised: wild type 0, dead -1); higher = more abundant; growth selection in yeast, the domain comes from the species named
# TEST PARAMETERS: Homo sapiens

Please review the entries below; each comes with its answer.
[
  {
    "VARIANT DESIGNATION": "R17N",
    "abundance fitness": 0.099
  },
  {
    "VARIANT DESIGNATION": "G35M",
    "abundance fitness": -0.202
  },
  {
    "VARIANT DESIGNATION": "V9I",
    "abundance fitness": -0.795
  },
  {
    "VARIANT DESIGNATION": "L3K",
    "abundance fitness": -0.276
  },
  {
    "VARIANT DESIGNATION": "V41A",
    "abundance fitness": -0.495
  }
]

# lookup: abundance fitness of `E33Q`
0.051

# lookup: abundance fitness of `A15Q`
-0.27

# lookup: abundance fitness of `W40T`
-0.101
